molecular target: NANPNVDP (Plasmodium falciparum); experiment: BLI, target on sensor
pKd: −log10 of the molar value.
Entries and their pKd values follow.

| binder | pKd |
| --- | --- |
| AB-007049 (antibody, V domains shown) VH: QMQLVESGGGVVQPGRSLRLSCTASGFTFSTYAMHWVRQSPGQGLQWVAVISNHETNKYYEDSVRGRFTISRDNSKNTLYLQMNSLRAEDTAVYYCARDGYSSSFFDFWGQGTLVTVSS VL: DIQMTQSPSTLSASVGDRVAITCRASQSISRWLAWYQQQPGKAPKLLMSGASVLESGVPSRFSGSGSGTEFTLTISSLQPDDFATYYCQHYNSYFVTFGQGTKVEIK | 7.67 |
| AB-007041 (antibody, V domains shown) VH: QMQLVESGGGVVQPGRSLRLSCTASGFTFSDYAMHWVRQSPGQGLQWVAVISYHSTNKYYEDSVRGRFTISRDNSKNTLYLQMNSLRAEDTAVYYCARDGYSSSFFDFWGQGTLVTVSS VL: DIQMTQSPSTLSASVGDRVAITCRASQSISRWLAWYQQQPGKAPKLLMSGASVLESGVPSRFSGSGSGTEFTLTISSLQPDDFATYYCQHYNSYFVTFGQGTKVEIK | 7.92 |
| AB-007073 (antibody, V domains shown) VH: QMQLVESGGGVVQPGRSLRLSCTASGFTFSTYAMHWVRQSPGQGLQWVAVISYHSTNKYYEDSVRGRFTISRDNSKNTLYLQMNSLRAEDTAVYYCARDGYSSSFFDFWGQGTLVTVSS VL: DIQMTQSPSTLSASVGDRVAITCRASQSISRWLAWYQQQPGKAPKLLMSGASVLESGVPSRFSGSGSGTEFTLTISSLQPDDFATYYCQHYNSHFVTFGQGTKVEIK | 7.69 |

Provenance of the data: patent US20220195023A1
